Assay: In vivo pharmacokinetic analysis
Conditions: ICR, mouse; mice, 5 mg/kg, oral gavage in 0.5% CMC, plasma
Listed compounds paired with reported Cmax
Value expressed in ng/mL; do not type the unit.

smiles_code | Cmax (ng/mL)
COC1=CC(=O)N(NC(=O)/C=C\n2cnc(-c3cc(C(F)(F)F)cc(C(F)(F)F)c3)n2)C1 | 440

Need Cmax, item COC1=CC(=O)N(NC(=O)/C=C\n2cnc(-c3cc(C(F)(F)F)cc(C(F)(F)F)c3)n2)CC1 389

Need Cmax, item O=C(/C=C\n1cnc(-c2cc(C(F)(F)F)cc(C(F)(F)F)c2)n1)NN1CCCC1=O 502

Need Cmax, item O=C(/C=C\n1cnc(-c2cc(C(F)(F)F)cc(C(F)(F)F)c2)n1)NN1C(=O)[C@@H]2CC[C@H]1C2 697
